experimental_system: T1, human CX3CR1 (human, UniProt P49238 1-355)
T1 construct: overexpressed on CHO, BA/F3 or HEK293T cells; also called huCX3CR1; hCX3CR1
T1 sequence: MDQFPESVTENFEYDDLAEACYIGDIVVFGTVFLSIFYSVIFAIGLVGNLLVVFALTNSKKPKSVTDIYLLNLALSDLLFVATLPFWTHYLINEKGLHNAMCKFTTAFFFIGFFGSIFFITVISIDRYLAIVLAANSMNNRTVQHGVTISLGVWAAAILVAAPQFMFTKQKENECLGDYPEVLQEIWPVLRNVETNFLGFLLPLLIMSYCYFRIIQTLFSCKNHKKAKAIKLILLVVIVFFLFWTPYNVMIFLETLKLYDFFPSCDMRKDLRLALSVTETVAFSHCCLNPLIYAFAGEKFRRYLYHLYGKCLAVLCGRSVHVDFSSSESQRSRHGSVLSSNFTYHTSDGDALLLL
assay: fractalkine competition FACS
Recorded measurements of IC50, one per entry
Answer with a number only, understood to be in nM.

binder: C100CX3CR1BII049 (VHH, 66B02 with A14P, R44Q, A74S, K83R, Q108L; not shown: myc/His tag) VHH: EVQLVESGGGSVQPGESLRLSCAASGSIFSSNAMAWYRQAPGKQRDLVAAINSVGVTKYADSVKGRFTISRDNSKNTVYLQMNSLRPEDTAVYYCTSDPRRGWDTRYWGQGTLVTVSS
quantity: IC50
obs_value: 18

Hello, please tell me recorded IC50 for this one: C100CX3CR1BII060 (VHH, 66B02 with S11L, A14P, E16G, R44Q, D46E, A74S, K83R, Q108L; not shown: myc/His tag) VHH: EVQLVESGGGLVQPGGSLRLSCAASGSIFSSNAMAWYRQAPGKQRELVAAINSVGVTKYADSVKGRFTISRDNSKNTVYLQMNSLRPEDTAVYYCTSDPRRGWDTRYWGQGTLVTVSS
190
